Test: The compound was tested for its solubility at a pH of 5.0
Assay type: ADME
Details: pH 5; read-out: S
assay endpoint: solubility

Req: // lookup solubility for Cc1cc(-c2nc3cc(F)ccc3s2)ccc1NC(=O)[C@@H](N)CCCCN.Cl.Cl
Resp: > 53.2 mg/mL

###

Assay: The compound was tested for its solubility at a pH of 10.5
Assay type: ADME
Conditions: pH 10.5; read-out: S
assay endpoint: solubility

Req: Which solubility reading was recorded for the compound Cc1cc(-c2nc3cc(F)ccc3s2)ccc1NC(=O)[C@@H](N)CCCCN.Cl.Cl ?
Resp: 10 µg/mL

###

Experiment: The compound was tested for its solubility at a pH of 7.4
Format: ADME
Details: pH 7.4; read-out: S
assay endpoint: solubility (µg/mL)
// note: answer is a bare numeric in µg/mL

Req: Quick check: solubility of Cc1cc(-c2nc3cc(F)ccc3s2)ccc1NC(=O)[C@@H](N)CCCCN.Cl.Cl ?
Resp: 390

Data provenance: ChEMBL document CHEMBL1135713
